test: Pharmacokinetic experiment in mice; assay type: in vivo, CD-1 female mice; details: female, CD-1, mouse, plasma, Injection (1 mg/kg), intravenous, read-out: Vdss
So I've got a bunch of molecules here, and I need their Vd values.
One number for each entry, in L/kg.

These solved cases illustrate the format of a correct answer.
[2H]c1cc(F)cc(N)c1NC(=O)c1ccc(CNC(=O)/C=C/c2cccnc2)cc1 [Compound 3]: 0.93
[2H]c1cc(CNC(=O)/C=C/c2cccnc2)ccc1C(=O)Nc1ccc(F)cc1N [Compound 4]: 1.32

The following molecules each have a reported value; give each one's Vd.
1. [2H]c1ccc(/C=C/C(=O)NCc2ccc(C(=O)Nc3ccc(F)cc3N)cc2)cn1 [Compound 12]
2. [2H]c1cc(NC(=O)c2ccc(CNC(=O)/C=C/c3cccnc3)cc2)c(N)cc1F [Compound 1]

Found:
1: 0.71; 2: 2.19

====

Experiment: Pharmacokinetic experiment in rats
Assay type: in vivo
Settings: female, rat, plasma, Injection (1 mg/kg), intravenous
Experimental: Healthy female rats aged 6 to 8 weeks were intravenously administered and orally administered at doses of 1 mg/kg and 10 mg/kg. The rats were fasted overnight before the administration. […]
Measure Name: AUC(0-t)

Lookup: Supply reported AUC(0-t) belonging to this molecule: `[2H]c1cc(C(=O)Nc2ccc(F)cc2N)ccc1CNC(=O)/C=C/c1cccnc1`
Found: 1260 ng·h/mL

====

So I've got a bunch of molecules here, and I need their IC50 values.
tested on: 293T cell; test: Inhibition of 293T cell proliferation (CTG, intracellular ATP); format: cell-based; conditions: Homo sapiens, HEK-293T, 72 h, compared to DMSO group, read-out: Inhibitory activity against 293T cell proliferation (IC50)

These solved cases illustrate the format of a correct answer.
[2H]c1cc(C(=O)Nc2ccc(F)cc2N)ccc1CNC(=O)/C=C/c1cccnc1 [Compound 5]: > 10 µM
[2H]c1ncccc1/C=C/C(=O)NCc1ccc(C(=O)Nc2ccc(F)cc2N)cc1 [Compound 9]: 5.18 µM
Nc1cc(F)ccc1NC(=O)c1ccc(CNC(=O)/C=C/c2cccnc2)cc1 [Chidamide, reference compound]: 6.71 µM
[2H]c1cc(F)cc(N)c1NC(=O)c1ccc(CNC(=O)/C=C/c2cccnc2)cc1 [Compound 3]: 7.5 µM
[2H]c1cncc(/C=C/C(=O)NCc2ccc(C(=O)Nc3ccc(F)cc3N)cc2)c1 [Compound 11]: 5.16 µM

The following molecules each have a reported value; give each one's IC50.
1. [2H]c1cc(NC(=O)c2ccc(CNC(=O)/C=C/c3cccnc3)cc2)c(N)cc1F [Compound 1]
2. [2H]c1ccc(/C=C/C(=O)NCc2ccc(C(=O)Nc3ccc(F)cc3N)cc2)cn1 [Compound 12]
3. [2H]c1c(F)ccc(NC(=O)c2ccc(CNC(=O)/C=C/c3cccnc3)cc2)c1N [Compound 2]
4. [2H]/C(=C\C(=O)NCc1ccc(C(=O)Nc2ccc(F)cc2N)cc1)c1cccnc1 [Compound 8]
5. [2H]c1cc(CNC(=O)/C=C/c2cccnc2)ccc1C(=O)Nc1ccc(F)cc1N [Compound 4]

Found:
1. > 10 µM
2. 5.31 µM
3. > 10 µM
4. 4.01 µM
5. 3.26 µM

====

So I've got a bunch of molecules here, and I need their pIC50 values.
tested on: Jurkat cell; assay: Inhibition of Jurkat cell proliferation (CTG, intracellular ATP); type: cell-based; settings: Homo sapiens, 72 h, compared to DMSO group, read-out: Inhibitory activity against Jurkat cell proliferation (IC50)
Numbers only, as −log10 of the molar value.

Nc1cc(F)ccc1NC(=O)c1ccc(CNC(=O)/C=C/c2cccnc2)cc1 [Chidamide, reference compound]: 5.79
[2H]c1ccc(/C=C/C(=O)NCc2ccc(C(=O)Nc3ccc(F)cc3N)cc2)cn1: 5.80

The following molecules each have a reported value; give each one's pIC50.
1. [2H]c1cc(NC(=O)c2ccc(CNC(=O)/C=C/c3cccnc3)cc2)c(N)cc1F
2. [2H]c1ncccc1/C=C/C(=O)NCc1ccc(C(=O)Nc2ccc(F)cc2N)cc1
3. [2H]c1cc(F)cc(N)c1NC(=O)c1ccc(CNC(=O)/C=C/c2cccnc2)cc1
4. [2H]c1c(F)ccc(NC(=O)c2ccc(CNC(=O)/C=C/c3cccnc3)cc2)c1N
5. [2H]c1cc(CNC(=O)/C=C/c2cccnc2)ccc1C(=O)Nc1ccc(F)cc1N

Found:
[6.07, 5.97, 5.73, 5.77, 5.77]

The following molecules each have a reported value; give each one's pIC50.
1. [2H]/C(=C\C(=O)NCc1ccc(C(=O)Nc2ccc(F)cc2N)cc1)c1cccnc1
2. [2H]c1cc(C(=O)Nc2ccc(F)cc2N)ccc1CNC(=O)/C=C/c1cccnc1

Found:
5.80
6.23

Lookup: Supply reported pIC50 belonging to this molecule: `[2H]c1cncc(/C=C/C(=O)NCc2ccc(C(=O)Nc3ccc(F)cc3N)cc2)c1`
Found: 6.02

====

biological target: UniProt:Q969S8
Sequence (Q969S8 whole entry): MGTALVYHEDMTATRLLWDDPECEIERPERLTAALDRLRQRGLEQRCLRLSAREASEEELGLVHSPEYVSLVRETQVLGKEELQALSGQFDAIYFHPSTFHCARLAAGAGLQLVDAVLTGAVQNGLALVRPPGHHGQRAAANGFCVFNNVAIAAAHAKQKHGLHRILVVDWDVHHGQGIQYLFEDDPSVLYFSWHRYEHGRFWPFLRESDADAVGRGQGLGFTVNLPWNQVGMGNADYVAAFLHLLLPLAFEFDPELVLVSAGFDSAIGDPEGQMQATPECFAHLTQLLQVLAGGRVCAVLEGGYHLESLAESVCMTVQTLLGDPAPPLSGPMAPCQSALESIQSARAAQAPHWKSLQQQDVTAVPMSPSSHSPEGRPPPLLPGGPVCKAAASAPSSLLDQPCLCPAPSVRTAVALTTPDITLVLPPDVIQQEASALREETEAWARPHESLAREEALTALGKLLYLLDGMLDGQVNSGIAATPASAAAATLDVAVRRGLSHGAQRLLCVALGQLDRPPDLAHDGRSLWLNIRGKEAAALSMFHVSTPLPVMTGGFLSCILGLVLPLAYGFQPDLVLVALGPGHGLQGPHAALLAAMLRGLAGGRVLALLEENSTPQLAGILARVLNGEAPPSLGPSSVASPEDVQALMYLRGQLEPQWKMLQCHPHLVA
Measure Name: IC50 (nM)
Answers are plain numbers, in nM.

Lookup: Recall the reported IC50 of Nc1cc(F)ccc1NC(=O)c1ccc(CNC(=O)/C=C/c2cccnc2)cc1 [Chidamide, reference compound] when tested on UniProt:Q969S8.
Found: 318

====

experiment: Stability in liver microsomes; type: in vitro ADME; conditions: Human liver microsomes 0.5 mg/mL, 1 µM compound, NADPH, 37 °C
Just a reminder that ties go to Not fulfilled: only Clliver strictly below 10 mL/min/kg counts as Fulfilled.

# count of solved cases: 3
[2H]c1cc(C(=O)Nc2ccc(F)cc2N)ccc1CNC(=O)/C=C/c1cccnc1 [Compound 5]: Fulfilled
[2H]c1ccc(/C=C/C(=O)NCc2ccc(C(=O)Nc3ccc(F)cc3N)cc2)cn1 [Compound 12]: Fulfilled
Nc1cc(F)ccc1NC(=O)c1ccc(CNC(=O)/C=C/c2cccnc2)cc1 [Chidamide, reference compound]: Not fulfilled

Lookup: Consider [2H]c1cncc(/C=C/C(=O)NCc2ccc(C(=O)Nc3ccc(F)cc3N)cc2)c1 [Compound 11] . Does its Clliver lie strictly below 10 mL/min/kg?
Found: Not fulfilled

Lookup: Consider [2H]c1ncccc1/C=C/C(=O)NCc1ccc(C(=O)Nc2ccc(F)cc2N)cc1 [Compound 9] . Does its Clliver lie strictly below 10 mL/min/kg?
Found: Fulfilled

====

experiment: Pharmacokinetic experiment in mice; format: in vivo, CD-1 female mice; details: female, CD-1, mouse, plasma, Injection (1 mg/kg), intravenous
So I've got a bunch of compounds here, and I need their half-life values.
The answer consists of two parts: a number and, after it, its unit.

These solved cases illustrate the format of a correct answer.
[2H]c1cc(NC(=O)c2ccc(CNC(=O)/C=C/c3cccnc3)cc2)c(N)cc1F: 145 min
[2H]c1ncccc1/C=C/C(=O)NCc1ccc(C(=O)Nc2ccc(F)cc2N)cc1: 88.8 min
[2H]/C(=C\C(=O)NCc1ccc(C(=O)Nc2ccc(F)cc2N)cc1)c1cccnc1: 60.6 min
[2H]c1cncc(/C=C/C(=O)NCc2ccc(C(=O)Nc3ccc(F)cc3N)cc2)c1: 107 min
[2H]c1cc(CNC(=O)/C=C/c2cccnc2)ccc1C(=O)Nc1ccc(F)cc1N: 183 min
[2H]c1cc(F)cc(N)c1NC(=O)c1ccc(CNC(=O)/C=C/c2cccnc2)cc1: 167 min

The following compounds each have a reported value; give each one's half-life.
1. [2H]c1c(F)ccc(NC(=O)c2ccc(CNC(=O)/C=C/c3cccnc3)cc2)c1N
2. [2H]c1ccc(/C=C/C(=O)NCc2ccc(C(=O)Nc3ccc(F)cc3N)cc2)cn1
3. [2H]c1cc(C(=O)Nc2ccc(F)cc2N)ccc1CNC(=O)/C=C/c1cccnc1
4. Nc1cc(F)ccc1NC(=O)c1ccc(CNC(=O)/C=C/c2cccnc2)cc1 [Chidamide, reference compound]

Found:
1: 138 min; 2: 70.2 min; 3: 76.8 min; 4: 122 min

====

assay: Pharmacokinetic experiment in mice; type: in vivo, CD-1 female mice; details: female, CD-1, mouse, plasma, Oral administration (10 mg/kg)
Measure Name: bioavailability (%)
One number for each entry, in %.

[2H]c1cncc(/C=C/C(=O)NCc2ccc(C(=O)Nc3ccc(F)cc3N)cc2)c1 [Compound 11]: 18.2
[2H]c1cc(CNC(=O)/C=C/c2cccnc2)ccc1C(=O)Nc1ccc(F)cc1N [Compound 4]: 28.5
[2H]c1cc(F)cc(N)c1NC(=O)c1ccc(CNC(=O)/C=C/c2cccnc2)cc1 [Compound 3]: 26.3
[2H]c1ccc(/C=C/C(=O)NCc2ccc(C(=O)Nc3ccc(F)cc3N)cc2)cn1 [Compound 12]: 30.5
[2H]c1cc(NC(=O)c2ccc(CNC(=O)/C=C/c3cccnc3)cc2)c(N)cc1F [Compound 1]: 45.3
[2H]c1cc(C(=O)Nc2ccc(F)cc2N)ccc1CNC(=O)/C=C/c1cccnc1 [Compound 5]: 52
[2H]/C(=C\C(=O)NCc1ccc(C(=O)Nc2ccc(F)cc2N)cc1)c1cccnc1 [Compound 8]: 29.6
[2H]c1c(F)ccc(NC(=O)c2ccc(CNC(=O)/C=C/c3cccnc3)cc2)c1N [Compound 2]: 46.5
[2H]c1ncccc1/C=C/C(=O)NCc1ccc(C(=O)Nc2ccc(F)cc2N)cc1 [Compound 9]: 10.5

Lookup: Supply reported bioavailability belonging to this molecule: Nc1cc(F)ccc1NC(=O)c1ccc(CNC(=O)/C=C/c2cccnc2)cc1 [Chidamide, reference compound]
Found: 46.1
